All figures here come from paper PMC5479578.

- TEST_SYSTEM: T1, NHERF1 PDZ2 domain (133-300) (human, UniProt O14745 133-300)
- T1 sequence (looked up): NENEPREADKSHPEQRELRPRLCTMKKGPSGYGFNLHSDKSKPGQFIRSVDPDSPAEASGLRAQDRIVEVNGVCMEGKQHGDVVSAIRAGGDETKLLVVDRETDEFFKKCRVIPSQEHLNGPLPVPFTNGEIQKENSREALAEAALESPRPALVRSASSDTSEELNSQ
- MEASUREMENT_NOTES: fluorescence polarisation
Ends that are not written are not given here. * marks the point of attachment. FITC = O=C1OC2(c3ccc(O)cc3Oc3cc(O)ccc32)c2ccc(NC(=S)*)cc21
ENDPOINT: Kd (nM)
Could you give me the number in nM? Just the number is fine.

Quick one: give measured Kd for {FITC}-LQEEWETVM [FITC-labeled carboxy-terminal PTHR 9-residue peptide] 2400
